- System: potential off-target genomic sites
- Protocol: Off-target analysis by oligo insertion based assay in primary human hepatocytes (sgRNAs)
- Format: cell-based
- Condition Label: 100 ng Cas9 mRNA, 25 nM sgRNA, 12.5 nM donor oligo, 48 h
Strand notation (5' to 3'): a small letter for the sugar, then the base; units joined by * are phosphorothioate-linked, units joined directly phosphodiester-linked; [ ] holds rarer units or linkages, { } end groups; capitals alone tell only the bases. m = 2'-O-methyl; r = 2'-OH (RNA)
Measurement Kind: # Sites in PHH (off-target integration sites detected)
I only need the number, thanks.

# Molecule, Observed Value
records = [
    ("G000486: TTR sgRNA modified sequence, Human, SEQ ID NO: 93; guide sequence of CR003339 (nucleic acid) guide: mA*mC*mA*rCrArArArUrArCrCrArGrUrCrCrArGrCrArGrUrUrUrUrArGrAmGmCmUmAmGmAmAmAmUmAmGmCrArArGrUrUrArArArArUrArArGrGrCrUrArGrUrCrCrGrUrUrArUrCrAmAmCmUmUmGmAmAmAmAmAmGmUmGmGmCmAmCmCmGmAmGmUmCmGmGmUmGmCmU*mU*mU*mU", 0),
]

Now take the following molecule into account.
Determine its reported # Sites in PHH (off-target integration sites detected): G000492: TTR sgRNA modified sequence, Human, SEQ ID NO: 99; guide sequence of CR003342 (nucleic acid) guide: mC*mU*mU*rCrUrCrUrArCrArCrCrCrArGrGrGrCrArCrGrUrUrUrUrArGrAmGmCmUmAmGmAmAmAmUmAmGmCrArArGrUrUrArArArArUrArArGrGrCrUrArGrUrCrCrGrUrUrArUrCrAmAmCmUmUmGmAmAmAmAmAmGmUmGmGmCmAmCmCmGmAmGmUmCmGmGmUmGmCmU*mU*mU*mU
5
